Below, each entry is listed alongside its reported inhibition at 10 µM.
Target: human OX2 receptor (Homo sapiens, UniProt O43614)
Construct: expressed in transfected cells; host or cells: CHO cells
Sequence (O43614 whole entry): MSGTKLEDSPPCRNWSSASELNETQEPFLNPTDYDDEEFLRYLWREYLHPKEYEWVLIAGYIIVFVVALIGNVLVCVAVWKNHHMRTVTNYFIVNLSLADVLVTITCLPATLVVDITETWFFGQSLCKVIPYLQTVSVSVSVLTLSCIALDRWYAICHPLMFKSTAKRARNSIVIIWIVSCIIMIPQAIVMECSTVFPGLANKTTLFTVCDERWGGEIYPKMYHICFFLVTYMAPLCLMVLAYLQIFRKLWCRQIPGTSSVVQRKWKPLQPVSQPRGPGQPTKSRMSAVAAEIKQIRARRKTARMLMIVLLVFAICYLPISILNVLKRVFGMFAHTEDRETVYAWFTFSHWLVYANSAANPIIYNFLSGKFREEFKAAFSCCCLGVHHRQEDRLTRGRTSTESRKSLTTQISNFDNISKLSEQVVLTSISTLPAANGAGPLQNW
Assay: Measurement of orexin receptor antagonistic activity (calcium fluorescence, FLIPRtetra)
Assay type: cell-based
Conditions: CHO, 10 μM test compound; CHO cells expressing human OX2 receptor; OX-A 0.3 nM; read-out: Human Orexin2 receptor inhibition (at 10 μM)
State the answer as a number, implicitly in %.

molecule: Cc1cc(N2CCN(C(=O)c3ccc(Cl)cc3-n3nccn3)C[C@H](C)O2)nc(C)n1
inhibition at 10 µM [%]: 100
--
molecule: Cc1cc(N2CCN(C(=O)c3cc(Cl)ccc3-n3nccn3)C[C@H](C)O2)nc(C(F)(F)F)n1
inhibition at 10 µM [%]: 96
--
molecule: Cc1cc(N2CCN(C(=O)c3cc(F)c(F)cc3-c3ncccn3)CCO2)nc(C)n1
inhibition at 10 µM [%]: 99

Kindly consider the entry below.
Prompt: Given the molecule Cc1cc(N2CC(C)N(C(=O)c3ccccc3-n3nccn3)CCO2)nc(C)n1 (stereo not shown) , what is its reported inhibition at 10 µM?
Completion: 103
